B1: Neutrophil cytosol factor 2, residues 456 to 514; numbered along this chain, P19878 (parent)
chain: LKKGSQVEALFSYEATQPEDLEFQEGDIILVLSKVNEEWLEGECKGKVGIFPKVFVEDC

Variants of: B1
Assay: abundance fitness (aPCA) (normalised: wild type 0, dead -1); higher = more abundant; growth selection in yeast, the domain comes from the species named
Details: Homo sapiens
Class field: derived from abundance fitness; ranges low bracket = under -0.5, middle bracket = from -0.5 up to 0.09, high bracket = 0.09 and over

Before answering, review these 3 worked examples.
sequence_variant=S33K category="high bracket"
sequence_variant=E22A category="high bracket"
sequence_variant=E41N category="low bracket"

Bin this entry: E41Q
high bracket

Bin this entry: K2L
middle bracket

Bin this entry: E41R
high bracket

Bin this entry: F11A
high bracket

Bin this entry: L10S
low bracket

Bin this entry: E57D
middle bracket

Bin this entry: S33W
middle bracket

Bin this entry: E41K
high bracket

Bin this entry: V48E
low bracket

Bin this entry: Q24K
middle bracket

Bin this entry: L21H
middle bracket

Bin this entry: S12K
low bracket

Bin this entry: E41A
middle bracket

Bin this entry: V54W
middle bracket

Bin this entry: T16K
high bracket

Bin this entry: E38D
middle bracket

Bin this entry: F55R
low bracket

Where do the numbers come from? From the Human Domainome abundance scans (Beltran et al. 2025).
